# assay.comment: Inhibition of Bacillus subtilis AcpS-PPTase using rhodamine-CoA/BHQ-2-YbbR as substrate preincubated for 15 mins followed by substrate addition by HTS assay
Listing: pIC50 of selected molecules
Expect pIC50 as a plain number equal to -log10 of the molar concentration.

structure.string | pIC50
Cc1cc(C)nc(NC(=S)N2CCN(c3ccc(Cl)cc3C(F)(F)F)CC2)c1 | 4.99
Cc1ccnc(NC(=S)N2CCC(Nc3cccc(C(F)(F)F)c3)CC2)c1 | 4.89
Cc1cc(C)nc(NC(=S)N2CCN(c3ccc(C(F)(F)F)cn3)CC2)c1 | 4.79

Need pIC50, item Cc1ccnc(NC(=S)N2CCN(c3ccccc3C(F)(F)F)CC2)c1
4.99

Input Cc1cc(C)nc(NC(=S)N2CCN(c3ncc(C(F)(F)F)cc3Cl)CC2)c1
4.73

###

# assay.comment: Non-competitive inhibition of Bacillus subtilis Sfp-PPTase using CoA/ActACP as substrate preincubated for 10 mins followed by substrate addition measured after 30 mins by HPLC analysis
readout.name: pIC50
Remember, pIC50 is on a log scale: it is -log10 of the molar concentration.

Recorded pIC50 for Cc1ccnc(NC(=S)N2CCN(c3cccc(C(F)(F)F)c3)CC2)c1 , please?
6.52

###

# assay.comment: Inhibition of Bacillus subtilis Sfp-PPTase using rhodamine-CoA/BHQ-2-YbbR as substrate preincubated for 15 mins followed by substrate addition by HTS assay
Listed here are compounds together with their documented IC50.
Record the value in nM, omitting the unit from your answer.

So what's the measured IC50 for this one? Cc1cc(C)cc(N2CCN(C(=S)Nc3cc(C)cc(C)n3)CC2)c1
1600

Entry to check: Cc1ccnc(NC(=S)N2CCN(c3cccc(C(F)(F)F)c3)C[C@@H]2C)c1
11500

Ok, now Cc1cc(C)nc(NC(=S)N2CCN(c3cccc(S(C)(=O)=O)c3)CC2)c1
2900

Next compound: Cc1cc(C)nc(NC(=S)N2CCN(c3cccc(Cl)c3Cl)CC2)c1
1600

###

# Tested on: Bacillus subtilis
# assay.comment: Antibacterial activity against Bacillus subtilis HM489 assessed as cellular ATP content after 5 hrs by BacTiter-Glo assay
# Type: functional, organism-based
# experimental.setup: HM489, 5 h
readout.name: pIC50
Quick note: pIC50 values are minus log10 of concentrations in mol/L.

structure.string | pIC50
Cc1ccnc(NC(=S)N2CCN(c3ccccc3C(F)(F)F)CC2)c1 | 5.03

What pIC50 value was documented for this compound, COc1ccnc(NC(=S)N2CCN(c3ncc(C(F)(F)F)cc3Cl)CC2)c1 ?
5.03

###

# assay.comment: Cmax in CD-1 mouse at 3 mg/kg, iv
# Assay type: ADME, organism-based
# Parameters: dose 3 mg/kg, route intravenous
# experimental.setup: in vivo
readout.name: Cmax (ng/mL)
Note: unit ng/mL is implicit; provide only the numeric part.

Find the recorded Cmax belonging to COc1ccnc(NC(=S)N2CCN(c3ncc(C(F)(F)F)cc3Cl)CC2)c1 and report it.
4110

###

# assay.comment: Half life in CD-1 mouse at 30 mg/kg, ip
# Assay type: ADME, organism-based
# Set-up: dose 30 mg/kg, route intraperitoneal
# experimental.setup: in vivo
readout.name: half-life (min)
# output: bare number, implied unit min

I would be grateful if you could share the reported half-life for COc1ccnc(NC(=S)N2CCN(c3ncc(C(F)(F)F)cc3Cl)CC2)c1 .
120

###

# assay.comment: Inhibition of Bacillus subtilis Sfp-PPTase using rhodamine-CoA/BHQ-2-YbbR as substrate preincubated for 15 mins followed by substrate addition by HTS assay
# note: boundary value 2000 nM maps to -1; IC50 below it maps to 1

See these solved cases before continuing.
structure.string | class.assignment
Cc1ccnc(NC(=S)NCCNc2cccc(C(F)(F)F)c2)c1 | -1
Cc1ccnc(N(C)C(=S)N2CCN(c3cccc(C(F)(F)F)c3)CC2)c1 | -1
Cc1ccnc(NC(=S)N2CCN(c3cccc(N(C)C)c3)CC2)c1 | -1

Continue with the next molecule.
Would you kindly verify if IC50 of Cc1cc(C)nc(NC(=S)N2CCN(Cc3cccc(C(F)(F)F)c3)CC2)c1 is strictly less than 2000 nM?
-1

###

# assay.comment: AUC (infinity) in CD-1 mouse at 3 mg/kg, iv
# Format: ADME, organism-based
# Set-up: time infinity, dose 3 mg/kg, route intravenous
# experimental.setup: plasma
readout.name: AUC(0-inf)
State the value with its unit after it.

Which AUC(0-inf) value is on record for COc1ccnc(NC(=S)N2CCN(c3ncc(C(F)(F)F)cc3Cl)CC2)c1 ?
6980 ng·h/mL

###

# tgt: CYP2D6 (Homo sapiens, UniProt P10635)
# Sequence (P10635 whole entry): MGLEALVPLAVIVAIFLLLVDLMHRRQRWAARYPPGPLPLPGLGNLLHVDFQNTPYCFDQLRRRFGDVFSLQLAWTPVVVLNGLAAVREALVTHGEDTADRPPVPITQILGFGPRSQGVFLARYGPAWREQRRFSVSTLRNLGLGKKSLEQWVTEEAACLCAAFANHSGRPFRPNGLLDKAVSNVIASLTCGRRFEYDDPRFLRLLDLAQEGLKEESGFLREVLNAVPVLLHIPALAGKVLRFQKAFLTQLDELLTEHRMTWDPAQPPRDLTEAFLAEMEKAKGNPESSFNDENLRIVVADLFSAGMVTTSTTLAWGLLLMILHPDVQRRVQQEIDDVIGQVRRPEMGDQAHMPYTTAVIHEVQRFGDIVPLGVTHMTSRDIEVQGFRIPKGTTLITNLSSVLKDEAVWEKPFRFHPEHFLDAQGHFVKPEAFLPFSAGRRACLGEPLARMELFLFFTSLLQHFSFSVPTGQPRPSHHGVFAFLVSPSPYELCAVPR
# assay.comment: Inhibition of CYP2D6 (unknown origin) using dextromethorphan as substrate at 3 uM relative to control
# Format: ADME
# experimental.setup: probe dextromethorphan
readout.name: inhibition at 3 µM (%)
Only the number, expressed in %, is required.

Which inhibition at 3 µM value belongs to COc1ccnc(NC(=S)N2CCN(c3ncc(C(F)(F)F)cc3Cl)CC2)c1 ?
25

###

# System: Bacillus subtilis
# assay.comment: Antibacterial activity against Bacillus subtilis HM489 assessed as cellular ATP content after 5 hrs by BacTiter-Glo assay
# Format: functional, organism-based
# experimental.setup: HM489, 5 h
Measured IC50 of individual entries

Consider the worked cases shown below.
structure.string | IC50
Cc1ccnc(NC(=S)N2CCC(Nc3cccc(C(F)(F)F)c3)CC2)c1 | 13.2 µM
Cc1cc(C)nc(NC(=S)N2CCN(c3ccc(C(F)(F)F)cn3)CC2)c1 | 13.2 µM
Cc1ccnc(NC(=S)N2CCN(c3cccc(C(F)(F)F)c3)CC2)c1 | 9.8 µM
Cc1cc(C)nc(NC(=S)N2CCN(c3ncc(C(F)(F)F)cc3Cl)CC2)c1 | 36.2 µM

Field: next compound
Entry Cc1cc(C)nc(NC(=S)N2CCN(c3ccc(Cl)cc3C(F)(F)F)CC2)c1 , system Bacillus subtilis: what IC50 was measured?
18.6 µM

###

# assay.comment: Mean residence time required for 63.2% elimination of drug in CD-1 mouse at 3 mg/kg, iv
# Assay type: ADME, organism-based
# Set-up: dose 3 mg/kg, route intravenous
# experimental.setup: in vivo
readout.name: MRT (h)
API: value field is a number in h; no unit string.

Name the recorded MRT for COc1ccnc(NC(=S)N2CCN(c3ncc(C(F)(F)F)cc3Cl)CC2)c1 .
3.4

###

# assay.comment: Inhibition of Bacillus subtilis AcpS-PPTase using rhodamine-CoA/BHQ-2-YbbR as substrate preincubated for 15 mins followed by substrate addition by HTS assay
readout.name: IC50 (µM)
Field: numeric (µM). Do not append units.

structure.string | IC50 (µM)
COc1ccnc(NC(=S)N2CCN(c3ncc(C(F)(F)F)cc3Cl)CC2)c1 | 8.1

Next compound, please.
Sample Cc1ccnc(NC(=S)N2CCN(c3cccc(C(F)(F)F)c3)CC2)c1 — what was its IC50?
4.6

###

pIC50 reference
# assay.comment: Inhibition of Bacillus subtilis Sfp-PPTase using rhodamine-CoA/BHQ-2-YbbR as substrate preincubated for 15 mins followed by substrate addition by HTS assay
Please treat pIC50 as minus the base-10 logarithm of the molar concentration.

structure.string | pIC50
Cc1cc(C)nc(NC(=S)N2CCN(c3ncc(C(F)(F)F)cc3Cl)CC2)c1 | 6.07
COc1cccc(NC(=S)N2CCN(c3cccc(C(F)(F)F)c3)CC2)n1 | 5.82
COC(=O)c1ccnc(NC(=S)N2CCN(c3cccc(C(F)(F)F)c3)CC2)c1 | 4.94
Cc1cc(C)nc(NC(=S)N2CCN(c3cc(Cl)c(Cl)c(Cl)c3)CC2)c1 | 6.54
Cc1cc(C)nc(NC(=S)N2CCN(c3cc(C#N)cc(C#N)c3)CC2)c1 | 6.19
Cc1ccnc(NC(=S)N2CCCN(c3cccc(C(F)(F)F)c3)CC2)c1 | 5.80
Cc1ccnc(NC(=S)N2CCN(c3cccc(C(F)(F)F)c3)C2)c1 | 6.09

Now consider a different compound.
Give the measured pIC50 of FC(F)(F)c1cccc(N2CCN(C(=S)Nc3ccccn3)CC2)c1 .
6.04

###

# assay.comment: Inhibition of AcpS-PPTase (unknown origin)
readout.name: pIC50
pIC50 here is simply -log10 of the concentration when that concentration is written in mol/L.

Fill blank: measured pIC50 of the molecule CSC(Cc1ccc(Cl)cc1)C(=O)Nc1ccc(Cl)cc1C(=O)O (stereo unspecified) is ____.
5.85

###

# assay.comment: AUC (infinity) in CD-1 mouse at 30 mg/kg, ip
# Assay type: ADME, organism-based
# Design: time infinity, dose 30 mg/kg, route intraperitoneal
# experimental.setup: plasma
readout.name: AUC(0-inf) (ng·h/mL)
Expressed in ng·h/mL, but write only the number.

If you can, please state the reported AUC(0-inf) value of COc1ccnc(NC(=S)N2CCN(c3ncc(C(F)(F)F)cc3Cl)CC2)c1 .
68900
